Molecular target: recombinant human AMPK complex 1 (containing α1β1γ1) (Homo sapiens, UniProt Q13131+Q9Y478)
Construct: made in house; host or cells: Spodoptera frugiperda Sf21 cells, baculovirus (pBacPak9 clones, triple infection)
Sequence (Q13131 whole entry): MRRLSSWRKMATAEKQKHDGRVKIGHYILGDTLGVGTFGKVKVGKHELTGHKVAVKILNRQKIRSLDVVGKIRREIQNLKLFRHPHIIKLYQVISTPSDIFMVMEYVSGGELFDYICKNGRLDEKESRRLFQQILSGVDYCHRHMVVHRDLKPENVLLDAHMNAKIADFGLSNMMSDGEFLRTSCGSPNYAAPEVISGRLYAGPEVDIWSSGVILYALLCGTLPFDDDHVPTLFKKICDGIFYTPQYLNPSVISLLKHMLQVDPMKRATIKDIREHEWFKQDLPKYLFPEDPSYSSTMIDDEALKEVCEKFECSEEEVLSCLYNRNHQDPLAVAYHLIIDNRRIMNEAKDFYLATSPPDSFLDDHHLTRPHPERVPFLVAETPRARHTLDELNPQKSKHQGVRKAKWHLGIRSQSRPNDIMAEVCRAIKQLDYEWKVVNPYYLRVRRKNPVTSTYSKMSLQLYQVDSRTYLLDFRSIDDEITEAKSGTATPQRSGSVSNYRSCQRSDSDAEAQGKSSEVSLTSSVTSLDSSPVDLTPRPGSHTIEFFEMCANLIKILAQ
Sequence (Q9Y478 whole entry): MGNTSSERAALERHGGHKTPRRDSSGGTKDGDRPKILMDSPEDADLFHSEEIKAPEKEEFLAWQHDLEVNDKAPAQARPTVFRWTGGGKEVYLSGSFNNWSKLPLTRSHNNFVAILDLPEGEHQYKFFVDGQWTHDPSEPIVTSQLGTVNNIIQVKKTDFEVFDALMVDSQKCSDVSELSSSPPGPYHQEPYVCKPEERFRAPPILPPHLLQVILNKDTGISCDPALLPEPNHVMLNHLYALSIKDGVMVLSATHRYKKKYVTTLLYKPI
Sequence (P54619 whole entry partner): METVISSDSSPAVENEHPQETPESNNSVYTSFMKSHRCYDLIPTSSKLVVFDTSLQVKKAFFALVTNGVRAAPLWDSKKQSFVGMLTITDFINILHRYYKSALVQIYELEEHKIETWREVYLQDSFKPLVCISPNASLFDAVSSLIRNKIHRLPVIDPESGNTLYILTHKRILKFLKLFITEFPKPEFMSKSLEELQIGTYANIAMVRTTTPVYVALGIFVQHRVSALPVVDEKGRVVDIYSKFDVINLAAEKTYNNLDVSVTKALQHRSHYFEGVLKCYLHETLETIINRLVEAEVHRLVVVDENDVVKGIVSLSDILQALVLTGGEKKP
Experiment: AMPKSAMSF in vitro AMPK activation assay
Type: biochemical
Conditions: recombinant human AMPK complex 1 (α1β1γ1); 10-point titration; read-out: % Maximum AMP Activation of human AMPK Complex 1
# Lookup of reported Emax keyed by entry
Field format: number, assumed %, no unit text.

Guide cases for Emax, answers given:
OCC1(CO)CC(Oc2nc3nc(-c4ccc(-c5ccccc5)cc4)c(Cl)cc3[nH]2)C1 [Example 111] :: 813
O[C@@H]1CO[C@H]2[C@@H]1OC[C@H]2Oc1nc2nc(-c3ccc(-n4cc5c(n4)CNC5)cc3)c(Cl)cc2[nH]1 [Example 177] :: 368
OC[C@H]1OC[C@H](Oc2nc3nc(-c4ccc(-c5ccccc5)cc4)c(Cl)cc3[nH]2)C[C@@H]1O [Example 140] :: 668

Q: Look up Emax for this molecule: CC(C)(O)Cc1cnn(-c2ccc(-c3ccc(-c4nc5nc(O[C@@H]6CO[C@H]7[C@@H]6OC[C@H]7O)[nH]c5cc4Cl)cc3)cc2)c1 [Example 190]
Ans: 374

Data provenance: patent US8796258B2
